test: amyloid nucleation score (Sup35N fusion, yeast selection) (log enrichment); library NNK1; higher = more nucleation; inactive = no reads after selection;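 note: zero at mode of non-aggregating sequences after 7 days selection at 30°C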
amyloid nucleation score values by entry
// return a plain number; no unit text

Here is how some substances turned out for amyloid nucleation score.
QEPCGW | -0.172
SFLSVFAMFYVQLPCHNMVS | -0.15
VIGLVLARLYFVQIEVLLHR | 1.24
AVFHRREVRELAHRQPLLPI | 1.03
LDFIKWAYNWCRLIVGIGGC | -0.476

Exam item: Looking for the measured amyloid nucleation score of TVCRSLSRLERHLR , can you help?
Marked response: 0.068

Exam item: Looking for the measured amyloid nucleation score of YCSKRFLVKRNFLLFYNCDF , can you help?
Marked response: 1.03

Exam item: Looking for the measured amyloid nucleation score of VDHISCCVFVMAVHMELALR , can you help?
Marked response: -1.07

Exam item: Looking for the measured amyloid nucleation score of SLYRDYVRFGWLVRCGNGHD , can you help?
Marked response: 0.078

Exam item: Looking for the measured amyloid nucleation score of GGKAIIQCLEW , can you help?
Marked response: -0.362

Data provenance is the supplement of paper PMC12042874.
